Reported values of %Inh for individual entries
test system: SRC; conditions: concentration: 1 μM,replicates: in singlicate; n = 1;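 also: KINOMEscan kinase panel screen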

| MOLECULE | UNIT TEXT | %Inh |
| --- | --- | --- |
| CN(c1cccc(CNc2nc(Nc3ccc4c(c3)CC(=O)N4)ncc2C(F)(F)F)c1)S(C)(=O)=O | % | 4 |
| COc1cc2ncn(-c3cc(OCC4CCCCC4)c(C(N)=O)s3)c2cc1OC | % | 21 |
| O=C(Nc1ccc(Oc2ccc3nc(NC(=O)C4CC4)cn3n2)c(F)c1)c1cccn(-c2ccccc2)c1=O | % | 10 |
| Cc1cccc2c(-c3ccncc3)c(-c3ccc(F)cc3)nn12.Cl | % | 0 |
| Cc1n[nH]c2cc(Nc3ccnc(Nc4cccc(CN5CCOCC5)c4)n3)ccc12 | % | 77 |
| Cc1ccc2c(-c3ccnc(Nc4ccc(C(F)(F)F)cc4)n3)cnn2n1 | % | 0 |
| NC(=O)c1ccc(-c2cc3ncnc(SCC(=O)O)c3s2)cc1 | % | 0 |
| CCN1CCN(CCCC(=O)Nc2n[nH]c3nc(-c4ccc(O)cc4)c(Br)cc23)CC1 | % | 0 |
| CC(=O)Nc1nc2cnc(Nc3cc(NC(=O)c4cccc(CC(C)(C)C#N)c4)ccc3C)nc2s1 | % | 56 |
| CCCC(=O)Nc1n[nH]c2ncccc12 | % | 0 |
| NC(=O)Nc1sc(-c2ccc(F)cc2)cc1C(N)=O | % | 55 |
| CCOC(=O)N1CCC(n2cnc(-c3ccc(F)cc3)c2-c2ccnc(N)n2)CC1 | % | 0 |
| Cc1ccc(CC(=O)N2CCc3cc(-c4cn(C)c5ncnc(N)c45)ccc32)cc1 | % | 0 |
| C[C@@H]1CNc2c(sc3ccc4nc(-c5ccncc5)ccc4c23)C(=O)N1 | % | 1 |
| COc1cc2c(Nc3ccc(NC(=O)c4ccccc4)cc3)ncnc2cc1OCCCN1CCOCC1 | % | 20 |
| Cn1ccc2ncnc(Oc3ccc(NC(=O)Nc4ccnc(C(F)(F)F)c4)c(Cl)c3)c21 | % | 13 |
| C[C@@H]1CNc2c(sc3ccc4nc(-c5ccc(O)cc5)ccc4c23)C(=O)N1 | % | 0 |
| CC(=O)c1c(-c2ccncc2)[nH]c(-c2ccncc2)c1C | % | 0 |
| N#Cc1cccc(C(=O)NC2CCN(c3ccnc(Nc4ccc(F)cc4)n3)C2)c1 (centres unmarked) | % | 5 |
| OCCn1cc(-c2cnc3nnn(Cc4ccc5ncccc5c4)c3n2)cn1 | % | 0 |
| O=C(Nc1n[nH]c2cc(-c3ccco3)ccc12)C1CC1 | % | 0 |
| Cn1ccc2ncnc(Oc3ccc(NC(=O)Nc4cnn(C(C)(C)C)c4)c(Cl)c3)c21 | % | 82 |
| CS(=O)(=O)Nc1ccc(-c2ccnc3[nH]ccc23)cc1 | % | 0 |
| Cn1ccc2ncnc(Oc3ccc(NC(=O)Nc4cccc(C(F)(F)F)c4)c(F)c3)c21 | % | 2 |
| O=C(NOCC1CC1)c1cc(Br)c(F)c(F)c1Nc1ccc(I)cc1Cl | % | 2 |
| C[C@@H](Oc1cc(-n2cnc3ccc(-c4ccncc4)cc32)sc1C(N)=O)c1ccccc1Cl | % | 5 |

The reported numbers originate from paper PMC5540273.
